- tested on: Endonuclease 8-like 2 (Homo sapiens) (UniProt Q969S2);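 also: fluorescence at 594 nm reports NEIL2 cutting and release of a quenched double-stranded DNA oligo substrate, reduced signal read as inhibition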
- Sequence (Q969S2 whole entry): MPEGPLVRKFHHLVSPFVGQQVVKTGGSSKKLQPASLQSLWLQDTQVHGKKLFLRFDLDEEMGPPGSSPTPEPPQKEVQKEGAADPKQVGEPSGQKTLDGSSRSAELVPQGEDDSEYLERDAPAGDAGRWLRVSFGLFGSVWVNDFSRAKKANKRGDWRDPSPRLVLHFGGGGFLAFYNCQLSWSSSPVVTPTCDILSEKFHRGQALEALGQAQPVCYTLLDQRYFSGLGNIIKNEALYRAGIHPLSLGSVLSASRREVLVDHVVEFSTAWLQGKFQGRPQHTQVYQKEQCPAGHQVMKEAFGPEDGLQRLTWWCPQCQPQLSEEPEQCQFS
- run parameters: Compound Concentration 10.0 uM, Hit No
- Description: Inhibition of NEIL2 by quantifying inhibition of NEIL2-mediated cleavage and dissociation of quenched duplex DNA oligonucleotides, measured as fluorescence at 594 nm.
Listed below: inhibition values for each entry.
Dear colleague, please return just the value in %, with no unit written.

# compound, unit annotation, inhibition
data = [
    ("O=c1[nH]c2ccccc2n1CCCN1CCN(C(c2ccccc2)c2ccccc2)CC1", "%", 5.38),
]

Any idea what inhibition came out for Cc1cc(C(=O)N2Cc3cnn(C)c3Nc3ccccc32)ccc1CNC(=O)N1CCC[C@H]1C(=S)N1CCCN(C)CC1 on Endonuclease 8-like 2 (Homo sapiens) (UniProt Q969S2)?
2.51

Any idea what inhibition came out for COC(=O)/C=C/c1cccc(N(Cc2ccc(-c3ccc(N(C)C)cc3)cc2)C(=O)C2CCCCC2)c1 on Endonuclease 8-like 2 (Homo sapiens) (UniProt Q969S2)?
3.34

Any idea what inhibition came out for C[C@@H](NCCc1ccc(O)cc1)[C@@H](O)c1ccc(O)cc1 (relative stereo) on Endonuclease 8-like 2 (Homo sapiens) (UniProt Q969S2)?
6.25

Any idea what inhibition came out for O=C1CSC(=O)N1C(CCc1ccncc1)COc1ccc(-c2cccc([N+](=O)[O-])c2)cc1 (centres undefined) on Endonuclease 8-like 2 (Homo sapiens) (UniProt Q969S2)?
3.73

Any idea what inhibition came out for N=C(N)NC(=O)Cc1c(Cl)cccc1Cl on Endonuclease 8-like 2 (Homo sapiens) (UniProt Q969S2)?
12.5

Any idea what inhibition came out for COc1cccc(-c2c(C)n(Cc3c(F)cccc3C(F)(F)F)c(=O)n(C[C@H](NCCCC(=O)O)c3ccccc3)c2=O)c1F on Endonuclease 8-like 2 (Homo sapiens) (UniProt Q969S2)?
-9.22

Any idea what inhibition came out for N[C@@]1(C(=O)O)CO[C@H]2[C@H](C(=O)O)[C@H]21 on Endonuclease 8-like 2 (Homo sapiens) (UniProt Q969S2)?
-7.74
